# System: MS2 coat protein
# METHOD: apparent KD of MS2 coat protein; designed switch direction (-1 OFF switch, 1 ON switch): -1; higher = weaker reporter binding
# CONDITION PARAMETERS: Eterna round: R95; input ligand: none
Label Fulfilled when apparent KD of MS2 coat protein is at or above 40 nM; anything below gets Not fulfilled.

{"SEQ TEXT": "AAAAAACAAGGAUAUACUAAGGAUGAUUAUCUUAAUUUUUGACAUGAGGAUCACCCAUGUAGAAGGUGUUAAAA [JR_Exclusion2_Sub007] (puzzle: Exclusion 2)", "CAT": "Fulfilled"}
{"SEQ TEXT": "GUCCUCGUGGCGCCUAAACACAUGAGGAUCACCCAUGUACAGGCUUUUUGCCGUCUUAUAAUAAAACCGAGGAUACG [Zaveonqu] (puzzle: Sensor v3, turn-off variant 1)", "CAT": "Not fulfilled"}
{"SEQ TEXT": "ACGUGAUAUCUGUCGGUGGACAUGAGGAUCACCCAUGUGAGCUUUUUGCUCGUCUUGUAACCCGGUGACAGACCUUC [Encetia] (puzzle: Sensor v3, turn-off variant 1)", "CAT": "Not fulfilled"}
{"SEQ TEXT": "GGUUGGCGAGGAUAUACAUGAGGAUCACCCAUGUGUGAGAAAAAAGUGAGGAAGAAAAGUAGAAGGCGCUGACG [salish99_ex3_r3_007] (puzzle: Exclusion 3)", "CAT": "Fulfilled"}
{"SEQ TEXT": "GAUGAGGUAGGAUAUACGAUAAUAUAGGGUAGAUAUAUAACACAUGAGGAUCACCCAUGUAGAAGGACCAGGAG [Mat - Exclusion 2 - Mod of my Tesla design - D65] (puzzle: Exclusion 2)", "CAT": "Not fulfilled"}
{"SEQ TEXT": "CUUAGACAUGAGGAUCACCCAUGUGAGGAUAUGAUGCGGGAGACGAAAAGUUUCAGCAUCAGAAGGCACAUAUG [mod of disincluded 3 v.3 (my top score 87 - 34% A's)] (puzzle: Exclusion 1)", "CAT": "Fulfilled"}

---

Recorded apparent KD of MS2 coat protein by entry
# Tested on: MS2 coat protein
# METHOD: apparent KD of MS2 coat protein, switch OFF state (with FMN for OFF switches, without FMN for ON switches); designed switch direction (-1 OFF switch, 1 ON switch): 1; higher = weaker reporter binding
# CONDITION PARAMETERS: FMN input: 0 or 200 uM; Eterna round: R93 (includes R88 designs)

{"SEQ TEXT": "ACAAAACAUGAGGAUCACCCAUGUCGACUAAAUCAAGGAUAUGGGAAUGCGAAAGCAAAGCCAGAAGGUGAGGUCC [Xeorarbiar]", "apparent KD of MS2 coat protein, µM": 0.185}
{"SEQ TEXT": "GUAAGACAUGAGGAUCACCCAUGUAUGCGUCAGCAAGGAUAUGGGAAUAAAAGACAGAAACCAGAAGGUGCUGUUG [Enqudi]", "apparent KD of MS2 coat protein, µM": 0.153}
{"SEQ TEXT": "CGAGUACAUGAGGAUCACCCAUGUUAUGAAUUGUCAGGAUAUGGGUAGAGGUGACAUGCGCCAGAAGGGACGUCUG [JR_SS001_Sub1005]", "apparent KD of MS2 coat protein, µM": 0.0528}
{"SEQ TEXT": "UACACGCUGGCGCAGGAUAUGUCGCUGGUGACAUGAGGAUCACCCAUGUAUACCAUUGCGGUUAAGCAGAAGGGUGAGAAGCGUG [Bidibeso]", "apparent KD of MS2 coat protein, µM": 0.0898}
{"SEQ TEXT": "AUAUAUAAAAGAUAGGAUAUACUAAAAUAAACAUGAGGAUCACCCAUGUAAAAAAAGAAACUCAUGUAGAAGGAUCAUAUAUAUA [ss2 7th]", "apparent KD of MS2 coat protein, µM": 0.246}
{"SEQ TEXT": "AUAAAACAUGAGGAUCACCCAUGUAGAAAUAUGGGAGGAUAUACUAGAUCGAAAGAUCUAGUAGAAGGCCUUUAUG [JL Mod of Eli 5]", "apparent KD of MS2 coat protein, µM": 0.0493}
{"SEQ TEXT": "AAAAGACAUGAGGAUCACCCAUGUAAAAACAUAGGAGGAUAUGUCGUGAAAAAAGACUUGGCAGAAGGCCUAUGUC [SS1 - 44]", "apparent KD of MS2 coat protein, µM": 0.0307}
{"SEQ TEXT": "ACAAAACAUGAGGAUCACCCAUGUAUAAAUAUAACAGGAUAUGGGACUGCCGAUUAGGCACCAGAAGGGUUUUCAC [Atearve]", "apparent KD of MS2 coat protein, µM": 0.0273}
{"SEQ TEXT": "GUGGACAUAGGAUAGGAUAUAUGAAUAAUUACAUGAGGAUCACCCAUGUCCAUUUAUAUGGGAACAUAGAAGGGUUGUAGUUAAC [Mat - Same state - Malcolm Mod - D131]", "apparent KD of MS2 coat protein, µM": 0.0819}
{"SEQ TEXT": "GAAAAACAUGAGGAUCACCCAUGUGUAAAUAUGGGAGGAUAUACAAAGACGUAAGUCAGAGUAGAAGGCCUAAAAG [Garnet 93]", "apparent KD of MS2 coat protein, µM": 0.176}

These measurements were taken from the supplement of paper PMC9170038.
